Here, each record is paired with measured IC50 (read off the curve) data.
Target: recombinant human KLK5 (human) (UniProt Q9Y337)
Sequence (Q9Y337 67-293): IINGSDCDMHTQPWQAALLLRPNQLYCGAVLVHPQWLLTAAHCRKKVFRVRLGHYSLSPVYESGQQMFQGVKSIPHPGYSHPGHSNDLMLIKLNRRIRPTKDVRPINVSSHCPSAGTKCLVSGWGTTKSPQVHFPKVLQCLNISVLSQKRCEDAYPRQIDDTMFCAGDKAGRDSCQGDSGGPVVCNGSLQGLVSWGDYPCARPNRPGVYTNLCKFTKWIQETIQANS
Assay: KLK5 direct activity assay, 5 nM KLK5, Boc-VPR-AMC
Metric Name: IC50 (read off the curve) (nM)

[[record]]
binder = "8F5 (antibody, V domains shown) VH: QSVKESEGGLFKPTDTLTLTCTVSGFSLSSYPISWVRQAPGNGLEWIGYITSEYGVAYYATWAESRSTITRNTNLNTVTLKMTSLTAADTATYFCVRENPTYGYAYDAWGPGTLVTVSS VL: AYDLTQTPASVEAAVGGTVTINCQASESIGNELSWYQQKSGQPPKLLIYQASTLASGVPSRFKGSGSGTDFTLTISDLECADAATYYCAQGFSSSGVENVFGGGTEVVVK"
metric_name = "IC50 (read off the curve)"
observed_value = 1

[[record]]
binder = "10H3 (antibody, V domains shown) VH: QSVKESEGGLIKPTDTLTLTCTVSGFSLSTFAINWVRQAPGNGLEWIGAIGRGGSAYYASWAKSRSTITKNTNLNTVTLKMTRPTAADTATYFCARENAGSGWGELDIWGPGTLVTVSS VL: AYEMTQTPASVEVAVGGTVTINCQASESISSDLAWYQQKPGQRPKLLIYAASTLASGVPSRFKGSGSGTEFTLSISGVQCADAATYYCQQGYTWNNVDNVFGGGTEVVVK"
metric_name = "IC50 (read off the curve)"
observed_value = 1

